# Target under test: OE19 (3A1) (Homo sapiens, UniProt P30838)
# Sequence (P30838 1-453): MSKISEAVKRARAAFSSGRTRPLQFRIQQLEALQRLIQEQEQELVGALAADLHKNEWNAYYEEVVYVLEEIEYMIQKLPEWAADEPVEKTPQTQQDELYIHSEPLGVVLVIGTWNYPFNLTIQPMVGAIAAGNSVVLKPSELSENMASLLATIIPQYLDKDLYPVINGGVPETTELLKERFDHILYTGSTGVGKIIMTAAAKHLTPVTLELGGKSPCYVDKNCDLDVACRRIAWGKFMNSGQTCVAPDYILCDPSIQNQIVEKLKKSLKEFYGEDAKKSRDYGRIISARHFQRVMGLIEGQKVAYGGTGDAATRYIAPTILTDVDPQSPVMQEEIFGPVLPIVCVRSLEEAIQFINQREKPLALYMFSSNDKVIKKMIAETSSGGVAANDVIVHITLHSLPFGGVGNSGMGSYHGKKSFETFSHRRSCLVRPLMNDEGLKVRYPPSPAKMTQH
# Experiment: Cellular ALDEFLUOR assay in OE19 cells (preferential ALDH3A1 expression)
Record form. Attribute: log10 AC50. Fill in for each entry.
Hi team, quick reminder: these entries are log10 of AC50 (nM).

Study these solved cases before continuing.
compound="O=C(NCc1ccc(F)c(F)c1)c1csc(N2CCN(c3cccc(C(F)(F)F)c3)CC2)n1 [NCGC01407951-01]" test_result=3.63
compound="O=C(NCc1ccc2c(c1)COC2=O)c1csc(N2CCN(c3cccc(C(F)(F)F)c3)CC2)n1 [NCGC01396481-01]" test_result=2.53
compound="O=C(NCc1cccc([S+](=O)([O-])C(F)(F)F)c1)c1csc(N2CCN(c3cccc(C(F)(F)F)c3)CC2)n1 [NCGC01397299-01]" test_result=1.90

Please report log10 AC50 for every entry that follows.
1. O=C(NCc1cc(F)cc(Br)c1)c1csc(N2CCN(c3cccc(C(F)(F)F)c3)CC2)n1 [NCGC01397297-01]
2. O=C(COc1cccc(CNC(=O)c2csc(N3CCN(c4cccc(C(F)(F)F)c4)CC3)n2)c1)NC1CC1 [NCGC01407783-01]

Reply |
1: 3.33; 2: 1.50

====

Record form. Attribute: CC-v2. Fill in for each entry.
# Target under test: Human ALDH3A1 (Homo sapiens, UniProt P30838)
# Experiment: ALDH3A1 biochemical assay (benzaldehyde/NADP+, diaphorase-resazurin readout, 1,536-well)
# Condition set: Table S2, in-house analogs; curve class
Answers are plain numbers.

Study these solved cases before continuing.
compound="O=C(NCc1ccncc1)c1csc(N2CCN(c3ccccc3F)CC2)n1 [NCGC00430720-01]" test_result=-2.2
compound="COc1ccc(N2CCN(c3nc(C(=O)NCc4ccccc4C)cs3)CC2)cc1 [NCGC00430666-01]" test_result=-1.2
compound="COc1cc(F)ccc1-c1cc(C(=O)NCCC(N)=O)c2c(c1)N(C)CCO2 [NCGC00417040-01]" test_result=-2.4

Here is the next item to consider.
Entry COC(=O)c1ccc2nc(CO[C@H]3CN(Cc4ccc(C(F)(F)F)cc4)C[C@H]3F)[nH]c2c1 [NCGC00392986-01] , CC-v2 reported as -2.2

====

Record form. Attribute: Efficacy. Fill in for each entry.
# Target under test: Human ALDH3A1 (Homo sapiens)
# Sequence (P30838 1-453): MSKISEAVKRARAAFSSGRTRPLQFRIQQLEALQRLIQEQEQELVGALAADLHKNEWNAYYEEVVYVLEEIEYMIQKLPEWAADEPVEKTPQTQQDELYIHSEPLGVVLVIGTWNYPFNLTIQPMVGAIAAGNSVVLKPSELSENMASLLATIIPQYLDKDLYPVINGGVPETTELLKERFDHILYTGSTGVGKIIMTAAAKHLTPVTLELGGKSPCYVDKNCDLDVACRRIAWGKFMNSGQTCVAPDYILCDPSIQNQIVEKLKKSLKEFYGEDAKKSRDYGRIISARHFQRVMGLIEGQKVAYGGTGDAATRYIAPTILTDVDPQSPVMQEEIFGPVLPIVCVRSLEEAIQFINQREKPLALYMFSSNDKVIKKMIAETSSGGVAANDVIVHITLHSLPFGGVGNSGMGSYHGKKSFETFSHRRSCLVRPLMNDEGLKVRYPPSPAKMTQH
# Experiment: ALDH3A1 biochemical assay (benzaldehyde/NADP+, diaphorase-resazurin readout, 1,536-well)
# Condition set: Table S4, biochemical
Numbers only.

Study these solved cases before continuing.
compound="Cc1cccc(CNC(=O)c2csc(N3CCN(c4ccc(Br)cc4)CC3)n2)c1 [NCGC01211165-01]" target_under_test="Human ALDH3A1 (Homo sapiens)" measured_endpoint=Efficacy test_result=-72.77
compound="Cc1cccc(CNC(=O)c2csc(N3CCN(c4ccc([S+](=O)([O-])F)cc4)CC3)n2)c1 [NCGC01211171-01]" target_under_test="Human ALDH3A1 (Homo sapiens)" measured_endpoint=Efficacy test_result=-53.27
compound="COc1ccc(F)c(N2CCN(c3nc(C(=O)NCc4cccc(C)c4)cs3)CC2)c1 [NCGC01211189-01]" target_under_test="Human ALDH3A1 (Homo sapiens)" measured_endpoint=Efficacy test_result=-85.97

Please report Efficacy for every entry that follows.
1. Cc1cccc(CNC(=O)c2csc(N3CCN(c4ccc(C)c(C)c4)CC3)n2)c1 [NCGC01211295-01]
2. COc1c(F)cc(N2CCN(c3nc(C(=O)NCc4cccc(C)c4)cs3)CC2)cc1F [NCGC01211123-01]
3. Cc1cccc(CNC(=O)c2csc(N3CCN(c4cccc(Br)c4)CC3)n2)c1 [Compound 10]
4. COc1ccccc1N1CCN(c2nc(C(=O)NCc3cccc(C)c3)cs2)CC1 [NCGC01210996-01]

Reply |
-92.09
-77.80
-94.28
-91.28

====

# Target under test: Human ALDH3A1 (Homo sapiens, UniProt P30838)
# Sequence (P30838 1-453): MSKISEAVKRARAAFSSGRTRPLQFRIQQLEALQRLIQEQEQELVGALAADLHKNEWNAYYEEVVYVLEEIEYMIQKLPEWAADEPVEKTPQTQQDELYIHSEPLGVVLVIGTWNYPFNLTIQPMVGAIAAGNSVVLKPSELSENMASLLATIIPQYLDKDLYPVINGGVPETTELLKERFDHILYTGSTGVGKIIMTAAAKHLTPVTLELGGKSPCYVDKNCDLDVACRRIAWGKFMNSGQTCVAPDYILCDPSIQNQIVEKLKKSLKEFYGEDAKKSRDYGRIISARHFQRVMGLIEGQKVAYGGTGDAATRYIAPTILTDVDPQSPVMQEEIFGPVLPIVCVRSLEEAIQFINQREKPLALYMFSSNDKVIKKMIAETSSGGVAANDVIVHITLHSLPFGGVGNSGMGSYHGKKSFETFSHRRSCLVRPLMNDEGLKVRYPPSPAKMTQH
# Experiment: ALDH3A1 biochemical assay (benzaldehyde/NADP+, diaphorase-resazurin readout, 1,536-well)
Record form. Attribute: AC50. Fill in for each entry.
One number for each entry, in nM.

Study these solved cases before continuing.
compound="COc1ccc(Cl)c(N2CCN(c3nc(C(=O)NCc4cccc(C)c4)cs3)CC2)c1 [NCGC01211381-01]" display_unit=nM test_result=580
compound="O=C(NCCc1cccc(OCCCc2ccccc2)c1)c1csc(N2CCN(c3cccc(C(F)(F)F)c3)CC2)n1 [NCGC01407986-01]" display_unit=nM test_result=562
compound="CCOC(=O)Cc1ccc(N2CCN(c3nc(C(=O)NCc4cccc(C)c4)cs3)CC2)cc1 [NCGC01212809-01]" display_unit=nM test_result=3240
compound="O=C(NCc1ccc(C(F)F)c(F)c1)c1csc(N2CCN(c3cccc(C(F)(F)F)c3)CC2)n1 [NCGC01407984-01]" display_unit=nM test_result=14.1
compound="Fc1ccc2[nH]c(CO[C@H]3CN(Cc4ccc5ccccc5n4)C[C@H]3F)nc2c1 [NCGC00393065-01]" display_unit=nM test_result=450

Please report AC50 for every entry that follows.
1. CNC(=O)c1cccc(-c2cnc3[nH]cc(CC(=O)N(C)c4ccccc4)c3c2)c1 [NCGC00412252-01]
2. O=C(NCc1ccc(F)c(F)c1)c1csc(N2CCN(c3cccc(C(F)(F)F)c3)CC2)n1 [NCGC01407951-01]

Reply |
1. 250
2. 35.5

====

# Target under test: Human ALDH3A1 (Homo sapiens)
# Sequence (P30838 1-453): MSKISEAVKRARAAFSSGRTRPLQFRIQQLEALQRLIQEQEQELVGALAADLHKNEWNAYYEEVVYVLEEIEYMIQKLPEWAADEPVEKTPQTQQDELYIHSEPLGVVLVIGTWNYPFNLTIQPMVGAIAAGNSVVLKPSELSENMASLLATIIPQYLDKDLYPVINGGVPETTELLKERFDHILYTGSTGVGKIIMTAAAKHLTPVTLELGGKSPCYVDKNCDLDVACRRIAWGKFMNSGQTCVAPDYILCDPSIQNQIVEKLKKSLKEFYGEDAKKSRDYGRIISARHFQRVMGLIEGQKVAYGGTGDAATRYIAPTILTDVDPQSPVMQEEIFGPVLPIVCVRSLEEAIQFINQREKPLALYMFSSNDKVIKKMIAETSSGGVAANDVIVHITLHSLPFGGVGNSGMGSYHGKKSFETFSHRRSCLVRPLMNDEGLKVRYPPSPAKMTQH
# Experiment: ALDH3A1 biochemical assay (benzaldehyde/NADP+, diaphorase-resazurin readout, 1,536-well)
# Condition set: Table S5, biochemical
The label 1 is reserved for Efficacy strictly under -100; 0 covers values equal to or above it.

compound_string=O=C(NCc1cc(F)cc(Br)c1)c1csc(N2CCN(c3cccc(C(F)(F)F)c3)CC2)n1 group=1

Ask | Consider the molecule O=C(NCc1c(Cl)cccc1Br)c1csc(N2CCN(c3cccc(C(F)(F)F)c3)CC2)n1 . Is its Efficacy strictly less than -100?
Reply | 0

Ask | Consider the molecule O=C(NCc1cccc([S+](=O)([O-])C(F)(F)F)c1)c1csc(N2CCN(c3cccc(C(F)(F)F)c3)CC2)n1 . Is its Efficacy strictly less than -100?
Reply | 0

Ask | Consider the molecule Cc1ccc(C)n1-c1ccc(CNC(=O)c2csc(N3CCN(c4cccc(C(F)(F)F)c4)CC3)n2)cc1 . Is its Efficacy strictly less than -100?
Reply | 0

# credit: paper PMC13266984
